B1: CPEB3 Ribozyme (parent)
chain: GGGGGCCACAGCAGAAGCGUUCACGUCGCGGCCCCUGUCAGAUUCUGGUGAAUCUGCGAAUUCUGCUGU

Variants of: B1
Assay: self-cleavage, relative activity (ratio to wild type); higher = more cleavage; co-transcriptional
Short version: self-cleavage at least 0.4 is Fulfilled, less is Not fulfilled.

Would you please look over these solved cases?
>  <Variant Annotation>
C45G G47C

>  <Label Value>
Fulfilled

$$$$
>  <Variant Annotation>
A10C G48U

>  <Label Value>
Fulfilled

$$$$
>  <Variant Annotation>
C12A U46A

>  <Label Value>
Fulfilled

$$$$
>  <Variant Annotation>
U55A G65C

>  <Label Value>
Fulfilled

$$$$
>  <Variant Annotation>
G1U G5A

>  <Label Value>
Not fulfilled

$$$$
>  <Variant Annotation>
U55C A60U

>  <Label Value>
Not fulfilled

$$$$
>  <Variant Annotation>
G58A U69C

>  <Label Value>
Fulfilled

$$$$
>  <Variant Annotation>
C7U C18G

>  <Label Value>
Not fulfilled

$$$$

Textbook exercise: given the entry G1U U21A , state whether its self-cleavage is greater than or equal to 0.4. Not fulfilled

Textbook exercise: given the entry C54G C66A , state whether its self-cleavage is greater than or equal to 0.4. Fulfilled

Textbook exercise: given the entry C7U A13U , state whether its self-cleavage is greater than or equal to 0.4. Fulfilled

Textbook exercise: given the entry A16U A40C , state whether its self-cleavage is greater than or equal to 0.4. Not fulfilled

Textbook exercise: given the entry A16U G30U , state whether its self-cleavage is greater than or equal to 0.4. Not fulfilled

Textbook exercise: given the entry C32U C39G , state whether its self-cleavage is greater than or equal to 0.4. Fulfilled

Textbook exercise: given the entry C32U U69A , state whether its self-cleavage is greater than or equal to 0.4. Fulfilled

Textbook exercise: given the entry G19A A42C , state whether its self-cleavage is greater than or equal to 0.4. Not fulfilled

Textbook exercise: given the entry C35A G58C , state whether its self-cleavage is greater than or equal to 0.4. Not fulfilled

Textbook exercise: given the entry C12A U62C , state whether its self-cleavage is greater than or equal to 0.4. Not fulfilled

Textbook exercise: given the entry C9A G25C , state whether its self-cleavage is greater than or equal to 0.4. Not fulfilled

Textbook exercise: given the entry C35U C57U , state whether its self-cleavage is greater than or equal to 0.4. Not fulfilled

Textbook exercise: given the entry G28U C29G , state whether its self-cleavage is greater than or equal to 0.4. Not fulfilled

Textbook exercise: given the entry U43G U62C , state whether its self-cleavage is greater than or equal to 0.4. Fulfilled
